Tested on: NOMO1
assaySummary: cell viability relative to DMSO control; higher = less cytotoxic
conditionDetails: HPLM + 10% dialyzed FBS; 48 h; 46.1 µM
attributeMeasured: cell viability (%)

1. CC1(C)O[C@@H]2C[C@H]3[C@@H]4CCC5=CC(=O)C=C[C@]5(C)[C@@]4(F)[C@@H](O)C[C@]3(C)[C@]2(C(=O)CO)O1
25.8
2. Cc1ccccc1N1C(=O)c2cc([S+](N)(=O)[O-])c(Cl)cc2NC1C (centres undefined)
123
3. CC/C(=C(/c1ccc(O)cc1)c1ccc(OCCNC)cc1)c1ccccc1
47.1
4. O=C(NCC[S+](=O)([O-])c1ccc(C(F)(F)F)cn1)c1ccc(Cl)cc1
106
5. FC(F)(F)c1ccc(/C=C/c2nc(COc3ccc(CCCCn4ccnn4)cc3)co2)cc1
22.6
6. CC/1=C/C(=O)N(O)/C(=C1)C2CCCCC2
39.8
7. CC(C)n1nc(-c2cc3cc(O)ccc3[nH]2)c2c(N)ncnc21
27
8. CC1=C(/C=C/C(C)=C/C=C/C(C)=C/C=C/C=C(C)/C=C/C=C(C)/C=C/C2=C(C)CCCC2(C)C)C(C)(C)CCC1
98.2
9. O=NN(CCCl)C(=O)NC1CCCCC1
109

###

System: P12-Ichikawa
assaySummary: cell viability relative to DMSO control; higher = less cytotoxic
conditionDetails: RPMI 5 mM glucose + 10% FBS; 48 h; 0.0211 µM
attributeMeasured: cell viability (%)

1. Cc1nc(NC(=O)N2CCC[C@H]2C(N)=O)sc1-c1ccnc(C(C)(C)C(F)(F)F)c1
93.7
2. COC1=CC=CC2=C1C(=NC(=N2)C3=CC=CS3)NN4C(=O)\C=C(C)/C4=O
92.9
3. COc1cnc(N[S+](=O)([O-])c2ccc(N)cc2)nc1
117
4. COc1ccc(C[C@@H](C)[C@@H](C)Cc2ccc(OC)c(OC)c2)cc1OC
110
5. Cc1ccccc1N1C(=O)c2cc([S+](N)(=O)[O-])c(Cl)cc2NC1C (stereo unspecified)
129
6. Cc1c(CN2CCN(C(=O)[C@H](C)O)CC2)sc2c(N3CCOCC3)nc(-c3cnc(N)nc3)nc12
86.8
7. COC[C@H]1OC(=O)C2=COC3=C2[C@@]1(C)\C4=C(C5CCC(=O)[C@@]5(C)C[C@H]4OC(C)=O)/C3=O (stereo partly specified)
12.2
8. CC(=O)O[C@H]1C(=O)[C@]2(C)[C@@H](O)C[C@H]3OC[C@@]3(OC(C)=O)C2[C@H](OC(=O)C4=CC=CC=C4)[C@]5(O)C[C@H](OC(=O)[C@H](O)[C@@H](NC(=O)C6=CC=CC=C6)C7=CC=CC=C7)\C(=C1/C5(C)C)C (stereo partly specified)
24
9. COC1CCC(CC1)N(C(=O)C2CCC(C)CC2)C3=C(SC(=C3)\C4=C\CCCC4)C(O)=O (stereo unspecified)
108
10. C[C@](O)(COc1ccc(C#N)cc1)C(=O)Nc1ccc(C#N)c(C(F)(F)F)c1
94.1
11. CC[C@H](CC[C@@H](C)[C@H]1CC[C@H]2[C@@H]3C\C=C/4C[C@@H](O)CC[C@]4(C)[C@H]3CC[C@]12C)C(C)C
121
12. O=C(NOCC(O)CO)c1cc(Br)c(F)c(F)c1Nc1ccc(I)cc1F (stereo unspecified)
73.8
13. COC1=CC2=NC=CC(=C2C=C1)OC3=CN=C(NC(=O)C/4=C(C)/N(CC(C)(C)O)N(C4=O)C5=CC=CC=C5)C=C3
92.1
14. COc1ccc(CC2NCCc3cc(OC)c(OC)cc32)cc1OC (stereo unspecified)
87.1
15. COc1cc2nc(N(C)CCCNC(=O)C3CCCO3)nc(N)c2cc1OC (stereo unspecified)
91
16. CC1(C)O[C@@H]2C[C@H]3[C@@H]4CCC5=CC(=O)C=C[C@]5(C)[C@@]4(F)[C@@H](O)C[C@]3(C)[C@]2(C(=O)CO)O1
115

###

Tested on: NOMO1
assaySummary: AUC of viability dose-response curve (% viability x log10 dose units); higher = less sensitive
conditionDetails: RPMI 5 mM glucose + 10% dialyzed FBS; 48 h
attributeMeasured: AUC of viability dose-response curve

1. COC1CCC(C(=O)c2ccc3nc4c(cc3c2)CCCO4)CC1 (centres undefined)
437
2. CC(C)n1c(/C=C/[C@H](O)C[C@H](O)CC(=O)O)c(-c2ccc(F)cc2)c2ccccc21
448
3. CC(C)(C)C(=O)Oc1ccc2c(c1)nc(NC(=O)c1cccc([N+](=O)[O-])c1)n2CCCO
458
4. C[C@]12C[C@H](O)[C@H]3[C@@H](CC\C4=C\C(=O)\C=C/[C@]34C)[C@@H]1CC[C@]2(O)C(=O)CO
449
5. CN(CC#C)C/C1=C/C2=CC=CC=C2OC3=CC=CC=C13
407
6. CC/1=C/C(=O)N(O)/C(=C1)C2CCCCC2
446
7. C[C@]12CC[C@@H]3c4ccc(OC(=O)N(CCCl)CCCl)cc4CC[C@H]3[C@@H]1CC[C@@H]2OP(=O)([O-])[O-].[Na+].[Na+]
455
8. COc1ccc(CC2NCCc3cc(OC)c(OC)cc32)cc1OC (centres undefined)
407
9. CC1CCC(C(=O)N(c2cc(C#CC(C)(C)C)sc2C(=O)O)C2CCC(O)CC2)CC1 (centres undefined)
411

###

Test system: SEM cells
assaySummary: cell viability relative to DMSO control; higher = less cytotoxic
conditionDetails: HPLM + 10% dialyzed FBS; 48 h; 1.71 µM
attributeMeasured: cell viability (%)

1. COC1=C(N2CCNC(C)C2)C(=CC3=C1N(\C=C(C(O)=O)/C3=O)C4CC4)F (stereo not drawn)
51.2
2. COc1ccc(-c2cc3nccn3c(Nc3ncccc3C(N)=O)n2)cc1OC
61.6
3. CC(=O)Oc1ccccc1C(=O)O
97.3
4. CN(CC#C)C/C1=C/C2=CC=CC=C2OC3=CC=CC=C13
91.6
5. C[C@]12C[C@H](O)[C@H]3[C@@H](CC\C4=C\C(=O)\C=C/[C@]34C)[C@@H]1CC[C@]2(O)C(=O)CO
102
6. C[C@H](NC(=O)/C(C#N)=C/c1cccc(Br)n1)c1ccccc1
40.7
7. CC1=CC=CC=C1N2\C(=N/C3=C(C(=CC=C3)C)C2=O)C[N]4C=NC5=C4N=CN=C5N
72.1
8. Cl.Cl.Cl.O[C@@H](COc1cccc2ncccc12)CN1CCN([C@@H]2c3ccccc3[C@@H]3[C@H](c4ccccc42)C3(F)F)CC1
89.6
9. COc1cc2nc(N(C)CCCNC(=O)C3CCCO3)nc(N)c2cc1OC (stereo not drawn)
89.3
10. [NH2][Pt]1([NH2])[O]CC(=O)[O]1
97
11. Cc1c(CN2CCN(C(=O)[C@H](C)O)CC2)sc2c(N3CCOCC3)nc(-c3cnc(N)nc3)nc12
38.5
12. C/C=C1\NC(=O)[C@H]2CSSCC/C=C\[C@H](CC(=O)N[C@H](C(C)C)C(=O)N2)OC(=O)[C@H](C(C)C)NC1=O
4.63
13. CCCc1nc(C(C)(C)O)c(C(=O)O)n1Cc1ccc(-c2ccccc2-c2nn[nH]n2)cc1
60
14. Cc1ccccc1C(C(=O)NC1CCCCC1)N(C(=O)Cn1ccnc1C)c1cccc(F)c1 (stereo not drawn)
124
15. C[C@@H](NC1=CC=CC=C1C(O)=O)C/2=C/C(=C\N3C(=O)/C=C(\N=C23)N4CCOCC4)C
79.1
16. CC1=NN(c2ccc(C)c(C)c2)C(=O)/C1=N/Nc1cccc(-c2cccc(C(=O)O)c2)c1O
119
17. C/C=C(/C)C(=O)O[C@H]1C(C)=C2[C@H]([C@@H]1OC(=O)CCCCCCC)[C@@](C)(OC(C)=O)C[C@H](OC(=O)CCC)[C@@]1(O)[C@H]2OC(=O)[C@@]1(C)O
7.59
18. CC(N[C@H]1C[C@@H]1c1ccccc1)c1ccc2c(c1)OCCO2 (stereo partly drawn)
126

###

System: P12-Ichikawa
assaySummary: cell viability relative to DMSO control; higher = less cytotoxic
conditionDetails: RPMI 5 mM glucose + 10% FBS; 48 h; 5.12 µM
attributeMeasured: cell viability (%)

1. Oc1ccc2c3c1O[C@H]1c4[nH]c5c(c4C[C@@]4(O)[C@@H](C2)N(CC2CC2)CC[C@]314)C[C@@]1(O)[C@H]2Cc3ccc(O)c4c3[C@@]1(CCN2CC1CC1)[C@H]5O4
127
2. OC1=C(O)C2=C(\C=C/C(=O)O2)C=C1
112
3. O=NN(CCCl)C(=O)NC1CCCCC1
112
4. C/C=C1\NC(=O)[C@H]2CSSCC/C=C\[C@H](CC(=O)N[C@H](C(C)C)C(=O)N2)OC(=O)[C@H](C(C)C)NC1=O
3.14
5. COC1CCC(CC1)N(C(=O)C2CCC(C)CC2)C3=C(SC(=C3)\C4=C\CCCC4)C(O)=O (configuration not stated)
94.9
6. CC(C)NCC(O)COc1ccc(COCCOC(C)C)cc1 (configuration not stated)
110
7. CCCc1nc(C(C)(C)O)c(C(=O)O)n1Cc1ccc(-c2ccccc2-c2nn[nH]n2)cc1
126
8. Cc1ccc(NC(=O)c2ccc(CN3CCN(C)CC3)cc2)cc1Nc1nc(-c2cccnc2)cs1
63
9. CC(C)OC(=O)OCOP(=O)(CO[C@H](C)Cn1cnc2c(N)ncnc21)OCOC(=O)OC(C)C.O=C(O)C=CC(=O)O
129
10. [NH2][Pt]1([NH2])[O]CC(=O)[O]1
92.4
11. O=C(NOCC(O)CO)c1cc(Br)c(F)c(F)c1Nc1ccc(I)cc1F (configuration not stated)
56.2
12. Cc1ccccc1C(C(=O)NC1CCCCC1)N(C(=O)Cn1ccnc1C)c1cccc(F)c1 (configuration not stated)
93.1
13. COC1=CC2=NC=CC(=C2C=C1)OC3=CN=C(NC(=O)C/4=C(C)/N(CC(C)(C)O)N(C4=O)C5=CC=CC=C5)C=C3
70.1
14. CC(NC1=CC=CC=C1)C\2=C\C(=C/N3C(=O)\C=C(/N=C23)N4CCOCC4)C (configuration not stated)
101
15. COc1cnc(N[S+](=O)([O-])c2ccc(N)cc2)nc1
117
16. CC(=O)Nc1ccc(OC[C@](C)(O)C(=O)Nc2ccc([N+](=O)[O-])c(C(F)(F)F)c2)cc1
85.1
17. C[C@H](O)[C@H]1[C@@H]2[C@H](C)C(=C(\N2C1=O)C(O)=O)/S[C@@H]3CN[C@H](CN[S+](N)([O-])=O)C3
117
18. OC(=O)C1=CC=C(NC2=NC3=C(C\N=C(/C4=CC(=CC=C34)Cl)C5=C(F)C=CC=C5F)C=N2)C=C1
27
19. CC/C(=C(/c1ccc(O)cc1)c1ccc(OCCNC)cc1)c1ccccc1
68.3
20. CN[S+](=O)([O-])Cc1ccc2[nH]cc(CCN(C)C)c2c1
125
21. N=C(CCSCc1csc(N=C(N)N)n1)N[S+](N)(=O)[O-]
95.3
22. C[C@]\12CC[C@H](O)CC1=C/CC3C2CC[C@@]\4(C)C3C\C=C4[N]5C=NC6=C5C=CC=C6 (some centres not stated)
102
23. Nc1ccccc1NC(=O)c1ccc(CNC(=O)OCc2cccnc2)cc1
27.8
24. CCC[C@H](NC(=O)/C(C#N)=C/c1cccc(Br)n1)c1ccccc1
111
25. Cc1nc(NC(=O)N2CCC[C@H]2C(N)=O)sc1-c1ccnc(C(C)(C)C(F)(F)F)c1
57.5
26. CCc1cncnc1N1CCN(Cc2nc3cc(C(F)(F)F)ccc3[nH]2)CC1
88.1
27. Cc1ccccc1N1C(=O)c2cc([S+](N)(=O)[O-])c(Cl)cc2NC1C (configuration not stated)
109
28. COC1=C(N2CCNC(C)C2)C(=CC3=C1N(\C=C(C(O)=O)/C3=O)C4CC4)F (configuration not stated)
17.8
29. CC1(C)Cc2c(-c3ccccc3)c(-c3ccc(Cl)cc3)c(CC(=O)O)n2C1
97.8
30. CC(=O)N(C)c1cccc(-c2ccnc3c(C(=O)c4cccs4)cnn23)c1
95.8
31. O=NN(CCCl)C(=O)NCCCl
103
32. C/C=C(/C)C(=O)O[C@H]1C(C)=C2[C@H]([C@@H]1OC(=O)CCCCCCC)[C@@](C)(OC(C)=O)C[C@H](OC(=O)CCC)[C@@]1(O)[C@H]2OC(=O)[C@@]1(C)O
46
